Target: AGO2 MID domain (Homo sapiens, UniProt Q9UKV8)
Construct: MID domain Gln432-Leu578 (147 residues); pE-SUMOpro-3 His-SUMO fusion, tag removed by SUMO protease 2; E. coli BL21(DE3); 15N-labelled for NMR
Sequence (Q9UKV8 432-578): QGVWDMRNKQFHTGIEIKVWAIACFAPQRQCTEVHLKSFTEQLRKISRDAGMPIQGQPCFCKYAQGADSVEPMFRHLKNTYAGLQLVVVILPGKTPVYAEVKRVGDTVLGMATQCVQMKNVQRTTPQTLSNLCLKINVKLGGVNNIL
Test: SPR inhibition, immobilised biotin-PEG-UMP versus AGO2 MID domain
Format: binding
Details: read-out: IC50
pIC50: −log10 of the molar value.
EXPERIMENTAL_ENDPOINT: pIC50

GET /values?readout=pIC50&item= Nc1ncnc2c1ncn2[C@@H]1O[C@H](COP(=O)(O)O)[C@@H](O)[C@H]1O [AMP]
~3.70

Cited source for all entries: paper PMC7394379
